Tested on: Hs-578T
Assay: cells
Type: functional, cell-based
Details: Homo sapiens
Description: SANGER: Inhibition of human Hs-578-T cell growth in a cell viability assay.
endpoint: IC50

INSERT INTO results (compound_structure_string, measurement_target, result) VALUES
  ('NC(=O)c1ccc(N(C(N)=O)c2c(F)cccc2F)nc1-c1ccc(F)cc1F', 'Hs-578T', '> 2000 nM'),
  ('O=C(NCCCNc1nc(Nc2cccc(NC(=O)N3CCCC3)c2)ncc1I)c1cccs1', 'Hs-578T', '2420 nM'),
  ('CS(=O)(=O)N1CCN(Cc2cc3nc(-c4cccc5[nH]ncc45)nc(N4CCOCC4)c3s2)CC1', 'Hs-578T', '1200 nM'),
  ('C/C(=C\c1csc(C)n1)[C@@H]1C[C@@H]2O[C@]2(C)CCC[C@H](C)[C@H](O)[C@@H](C)C(=O)C(C)(C)[C@@H](O)CC(=O)O1', 'Hs-578T', '> 32 nM'),
  ('CN(C)CCOc1ccc(-c2nc(-c3ccncc3)c(-c3ccc4c(c3)CC/C4=N\O)[nH]2)cc1', 'Hs-578T', '> 5000 nM'),
  ('COc1ccc(-c2cc3nccn3c(Nc3ncccc3C(N)=O)n2)cc1OC', 'Hs-578T', '> 8000 nM');

----------
System: CP66-MEL;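 further: growth inhibition of CP66-MEL cells determined in a cell viability assay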
Experiment: cells
Type: functional, cell-based
Details: Homo sapiens
Description: SANGER: Inhibition of human CP66-MEL cell growth in a cell viability assay.
pIC50: −log10 of the molar value.
endpoint: pIC50

INSERT INTO assay_data (compound, value_relation_sign, numeric_readout) VALUES
  ('COc1cc(N2CCC(N3CCN(C)CC3)CC2)ccc1Nc1ncc(Cl)c(Nc2ccccc2S(=O)(=O)C(C)C)n1 [TAE-684]', '<', 5.70),
  ('O=S(=O)(O)c1ccc2cc(/N=N/c3cc(S(=O)(=O)O)c4cccnc4c3O)ccc2c1', '<', 4.80),
  ('C/C(=C\c1csc(C)n1)[C@@H]1C[C@@H]2O[C@]2(C)CCC[C@H](C)[C@H](O)[C@@H](C)C(=O)C(C)(C)[C@@H](O)CC(=O)O1 [PATUPILONE]', '=', 7.93),
  ('Cc1ccc(NC(=O)c2ccc(CN3CCN(C)CC3)cc2)cc1Nc1nccc(-c2cccnc2)n1 [IMATINIB]', '<', 5.70),
  ('CN(NC(=O)CC(=O)NN(C)C(=S)c1ccccc1)C(=S)c1ccccc1 [ELESCLOMOL]', '=', 7.26),
  ('Nc1ccccc1NC(=O)c1ccc(CNC(=O)OCc2cccnc2)cc1 [ENTINOSTAT]', '=', 5.61),
  ('CC(C)C[C@H](NC(=O)[C@H](Cc1ccccc1)NC(=O)c1cnccn1)B(O)O [BORTEZOMIB]', '=', 9.32),
  ('NC(=O)c1cccc(-c2cc(Nc3ccc(OC(F)(F)F)cc3)ncn2)c1', '<', 5.89);

----------
Tested on: TI-73;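 further: cell viability assay measuring how much compounds suppress growth of the cultured cell line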
Assay: cells
Format: functional, cell-based
Details: Homo sapiens
Description: SANGER: Inhibition of human TI-73 cell growth in a cell viability assay.
endpoint: IC50

INSERT INTO assay_data (compound_structure_string, result) VALUES
  ('NC(=O)c1ccc(N(C(N)=O)c2c(F)cccc2F)nc1-c1ccc(F)cc1F', '> 2000 nM');

----------
Test system: HCC1806;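 further: growth inhibition of the cancer cell line, determined with a cell viability assay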
Experiment: cells
Type: functional, cell-based
Settings: Homo sapiens
Description: SANGER: Inhibition of human HCC1806 cell growth in a cell viability assay.
endpoint: IC50 (nM)

INSERT INTO assay_data (compound_structure_string, value_relation_sign, numeric_readout) VALUES
  ('CN(NC(=O)CC(=O)NN(C)C(=S)c1ccccc1)C(=S)c1ccccc1', '=', 23.5),
  ('C/C(=C\c1csc(C)n1)[C@@H]1C[C@@H]2O[C@]2(C)CCC[C@H](C)[C@H](O)[C@@H](C)C(=O)C(C)(C)[C@@H](O)CC(=O)O1', '=', 1.38),
  ('NC1(c2ccc(-c3nc4ccn5c(=O)[nH]nc5c4cc3-c3ccccc3)cc2)CCC1', '>', 4000),
  ('CCCCCCCCCCCC1=C(O)C(=O)C=C(O)C1=O', '>', 32000),
  ('OC[C@H](Cc1ccccc1)Nc1nc(Oc2ccc3c(c2)CCC3)nc2c1ncn2Cc1ccc(-c2ccccc2)cc1', '>', 10200);

----------
Test system: HO-1-N-1;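 further: growth inhibition of human HO-1-N-1 cells, read out with a cell viability assay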
Assay: cells
Assay type: functional, cell-based
Settings: Homo sapiens
Description: SANGER: Inhibition of human HO-1-N-1 cell growth in a cell viability assay.
pIC50: −log10 of the molar value.
# pIC50 per record follows
endpoint: pIC50

INSERT INTO results (compound_structure_string, value_relation_sign, numeric_readout) VALUES
  ('NC(=O)c1ccc(N(C(N)=O)c2c(F)cccc2F)nc1-c1ccc(F)cc1F', '<', 5.70),
  ('CC1(C)CCC(c2ccc(Cl)cc2)=C(CN2CCN(c3ccc(C(=O)NS(=O)(=O)c4ccc(N[C@H](CCN5CCOCC5)CSc5ccccc5)c(S(=O)(=O)C(F)(F)F)c4)cc3)CC2)C1', '<', 5.70),
  ('O=S(=O)(O)c1ccc2cc(/N=N/c3cc(S(=O)(=O)O)c4cccnc4c3O)ccc2c1', '<', 4.80),
  ('O=C(NCCCNc1nc(Nc2cccc(NC(=O)N3CCCC3)c2)ncc1I)c1cccs1', '=', 5.71),
  ('CCCCCCCCCCCC1=C(O)C(=O)C=C(O)C1=O', '=', 4.91);

----------
Tested on: EC-GI-10
Experiment: cells
Format: functional, cell-based, Homo sapiens
Details: Homo sapiens, EC-GI-10
Description: SANGER: Inhibition of human EC-GI-10 cell growth in a cell viability assay.
endpoint: IC50

INSERT INTO results (molecule, measurement_target, endpoint, result) VALUES
  ('CCCCCCCCCCCC1=C(O)C(=O)C=C(O)C1=O', 'EC-GI-10', 'IC50', '> 32000 nM'),
  ('C=CC(=O)N1CCCC(Nc2nc(Nc3ccc(N(C)C(=O)CC)cc3)nc3[nH]cnc23)C1 (stereo unspecified)', 'EC-GI-10', 'IC50', '> 10200 nM'),
  ('COC(=O)[C@H](CCSC)NC(=O)c1ccc(NC[C@@H](N)CS)cc1-c1ccccc1', 'EC-GI-10', 'IC50', '> 1020 nM'),
  ('COc1ccc(N(C(=O)Oc2c(C)cccc2C)c2ccnc(Nc3ccc(N4CCN(C)CC4)cc3)n2)c(OC)c1', 'EC-GI-10', 'IC50', '> 5120 nM'),
  ('CN(NC(=O)CC(=O)NN(C)C(=S)c1ccccc1)C(=S)c1ccccc1', 'EC-GI-10', 'IC50', '44.6 nM'),
  ('COc1cc(N2CCC(N3CCN(C)CC3)CC2)ccc1Nc1ncc(Cl)c(Nc2ccccc2S(=O)(=O)C(C)C)n1', 'EC-GI-10', 'IC50', '> 2000 nM');

----------
System: QIMR-WIL
Experiment: cells
Format: functional, cell-based, Homo sapiens
Details: Homo sapiens, QIMR-WIL
Description: SANGER: Inhibition of human QIMR-WIL cell growth in a cell viability assay.
pIC50: −log10 of the molar value.
endpoint: pIC50

INSERT INTO results (compound_structure_string, measurement_target, result) VALUES
  ('O=S(=O)(O)c1ccc2cc(/N=N/c3cc(S(=O)(=O)O)c4cccnc4c3O)ccc2c1', 'QIMR-WIL', '< 4.80');

----------
Test system: BV-173
Assay: cells
Format: functional, cell-based, Homo sapiens
Conditions: Homo sapiens, BV-173
Description: SANGER: Inhibition of human BV-173 cell growth in a cell viability assay.
pIC50: −log10 of the molar value.
# pIC50 per record follows
endpoint: pIC50

INSERT INTO assay_data (compound_structure_string, result) VALUES
  ('COc1ccc(N(C(=O)Oc2c(C)cccc2C)c2ccnc(Nc3ccc(N4CCN(C)CC4)cc3)n2)c(OC)c1', '> 7.70'),
  ('OC[C@H](Cc1ccccc1)Nc1nc(Oc2ccc3c(c2)CCC3)nc2c1ncn2Cc1ccc(-c2ccccc2)cc1', '< 4.99'),
  ('CC(C)C[C@H](NC(=O)[C@H](Cc1ccccc1)NC(=O)c1cnccn1)B(O)O', '< 7.70'),
  ('Cc1cc(N2CCOCC2)cc2[nH]c(-c3c(NC[C@@H](O)c4cccc(Cl)c4)cc[nH]c3=O)nc12', '< 5.29'),
  ('NC(=O)Nc1cc(-c2cccc(F)c2)sc1C(=O)N[C@H]1CCCNC1', 6.46);

----------
# pIC50 per record follows
System: LCLC-97TM1;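 further: cell viability assay measuring growth inhibition of human LCLC-97TM1 cells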
Assay: cells
Format: functional, cell-based
Conditions: Homo sapiens
Description: SANGER: Inhibition of human LCLC-97TM1 cell growth in a cell viability assay.
pIC50: −log10 of the molar value.
endpoint: pIC50

INSERT INTO assay_data (compound_structure_string, value_relation_sign, numeric_readout) VALUES
  ('OC[C@H](Cc1ccccc1)Nc1nc(Oc2ccc3c(c2)CCC3)nc2c1ncn2Cc1ccc(-c2ccccc2)cc1', '=', 5.19),
  ('NC(=O)c1ccc(N(C(N)=O)c2c(F)cccc2F)nc1-c1ccc(F)cc1F', '<', 5.70),
  ('CS(=O)(=O)N1CCN(Cc2cc3nc(-c4cccc5[nH]ncc45)nc(N4CCOCC4)c3s2)CC1', '=', 5.57),
  ('O=C(NCCCNc1nc(Nc2cccc(NC(=O)N3CCCC3)c2)ncc1I)c1cccs1', '<', 5.30);

----------
Test system: LS-513
Assay: cells
Type: functional, cell-based, Homo sapiens
Conditions: Homo sapiens, LS-513
Description: SANGER: Inhibition of human LS-513 cell growth in a cell viability assay.
endpoint: IC50

INSERT INTO assay_data (compound_structure_string, endpoint, result) VALUES
  ('CN(C)CCOc1ccc(-c2nc(-c3ccncc3)c(-c3ccc4c(c3)CC/C4=N\O)[nH]2)cc1', 'IC50', '> 5000 nM'),
  ('CN(NC(=O)CC(=O)NN(C)C(=S)c1ccccc1)C(=S)c1ccccc1', 'IC50', '82 nM'),
  ('O=C(NCCCNc1nc(Nc2cccc(NC(=O)N3CCCC3)c2)ncc1I)c1cccs1', 'IC50', '> 5000 nM'),
  ('NC(=O)c1ccc(N(C(N)=O)c2c(F)cccc2F)nc1-c1ccc(F)cc1F', 'IC50', '> 2000 nM'),
  ('COC(=O)[C@H](CCSC)NC(=O)c1ccc(NC[C@@H](N)CS)cc1-c1ccccc1', 'IC50', '> 1020 nM');
